- TEST NAME: Safety index (MTC/PC50)
- Assay type: toxicity
- CONDITION INFO: read-out: Safety index
ASSAY READOUT: selectivity ratio

Summary for this compound, Cc1c(C)c2c(c(C)c1O)CC[C@@](C)(CCC[C@H](C)CCC[C@H](C)CCCC(C)C)O2 : selectivity ratio is > 250
